These measurements were taken from the supplement of paper PMC11451515.

Tested on: NOMO1
Assay: cell viability relative to DMSO control; higher = less cytotoxic
Conditions: HPLM + 10% dialyzed FBS; 48 h; 0.00234 µM
REPORTED_METRIC: cell viability

Worked examples follow.
O=C(OC)[C@]12CC[C@@]3(C)[C@]4(C)CC[C@H]5[C@@](C)(C)C(=O)C(=C[C@]5(C)C4=CC(=O)[C@@H]3[C@@H]2C[C@](C)(C)CC1)C#N = 100%
CCc1cncnc1N1CCN(Cc2nc3cc(C(F)(F)F)ccc3[nH]2)CC1 = 114%
C=C(C)[C@@H]1CC[C@]2(C(=O)O)CC[C@]3(C)[C@H](CC[C@@H]4[C@@]5(C)CC[C@H](O)C(C)(C)[C@@H]5CC[C@]43C)[C@@H]12 = 124%
NC1(Cc2ccc(Cl)cc2)CCN(c2ncnc3[nH]ccc23)CC1 = 93.7%

*Q* Fill blank: measured cell viability of the compound CC1=C(/C=C/C(C)=C/C=C/C(C)=C/C=C/C=C(C)/C=C/C=C(C)/C=C/C2=C(C)CCCC2(C)C)C(C)(C)CCC1 is ____.
*A* 110%

*Q* Please do the same for OC(=O)C1=CC=C(NC2=NC3=C(C\N=C(/C4=CC(=CC=C34)Cl)C5=C(F)C=CC=C5F)C=N2)C=C1 as well.
*A* 96.6%

*Q* Please do the same for COc1ccc(-c2cc3nccn3c(Nc3ncccc3C(N)=O)n2)cc1OC as well.
*A* 111%
